Target: T1, DFNB31_1, Q9P202
T1 sequence (Q9P202 135-233, limits assumed, looked up): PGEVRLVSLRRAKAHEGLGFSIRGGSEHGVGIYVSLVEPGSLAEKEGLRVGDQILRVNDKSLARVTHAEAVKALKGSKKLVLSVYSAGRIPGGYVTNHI
Assay: holdup assay
Set-up: key: below the threshold = too weak to quantify, mostly under pKd 3.1 to 4
Conditions: plain residues with an end cap or a label only (N-terminal biotin on a linker: ado-ado)
EXPERIMENTAL ENDPOINT: pKd

>>> df
                                     binder  experimental_result
0  KRPEMTSSSV [MUC3B, MUC3A, Q02505;Q9H195]                 4.24
1               TISFTQTSQF [SLC1A1, P43005]  below the threshold
2                DPAESMESLV [PTPRG, P23470]  below the threshold
3                  EPQYQPGENL [SRC, P12931]  below the threshold

// data source = paper PMC9482650
